Field: ED50. Provide a value for each of the molecules that follow.
Test system: intestinal triglyceride absorption
Experiment: Inhibition of intestinal triglyceride absorption in vivo (rats)
Design: species or system male Wistar rats
Conditions: p.o., fasting rats, postprandial serum triglyceride increase after tragacanth-olive oil loading
Protocol: 3. Inhibition of intestinal triglyceride absorption in vivo (rats) […] The blood samples are centrifuged and, after isolation of the serum, the triglycerides are determined photometrically with an EPOS-Analyzer 5060 (Eppendorf Gerätebau, Netheler & Hinz GmbH, Hamburg). The triglycerides are determined completely enzymatically with a commercially available UV test. […] The course of the serum triglycerides in the control animals, which were given only tragacanth, is also calculated. […]

[Q] // lookup ED50 for CCOC(=O)c1cc2cc(OC)ccc2n1Cc1ccc(C(C(=O)NC(CO)c2ccccc2)C2CCCC2)cc1 (mixture of isomers)
[A] 2 mg/kg

[Q] Which ED50 value belongs to CCOC(=O)c1cc2ccccc2n1Cc1ccc(C(C(=O)NC(CO)c2ccccc2)C2CCCCCC2)cc1 (mixture of isomers) [Example 20] ?
[A] >>10 mg/kg

[Q] What value of ED50 has been recorded for this entry: CCOC(=O)c1cc2ccccc2n1Cc1ccc(C(C(=O)NC(CO)c2ccccc2)C2CCCCCC2)cc1 (single isomer, unassigned) [Example 21]
[A] >>6 mg/kg

---

Test system: ApoB-100-associated lipoproteins
Assay: Inhibition of the release of ApoB-100-associated lipoproteins from hepatic cells (HepG2), LDL immunoassay
Type: cell-based, human
Conditions: concentration at which adsorption of light (450 nm) is inhibited by 50% compared with solvent control
pIC50: −log10 of the molar value.
Assign true (1) whenever pIC50 does not fall below 7; assign false (0) whenever it does.

[Q] State whether the measured pIC50 reaches 7, counting equality as reaching it, for O=C(NC(CO)c1ccccc1)C(c1ccc(Cn2ccc3cc(Cl)ccc32)cc1)C1CCCCCC1 (mixture of isomers)
[A] true (1)

[Q] Is reported pIC50 greater than or equal to 7 here: Cc1c(C)n(Cc2ccc(C(C(=O)NC(CO)c3ccccc3)C3CCCC3)cc2)c2ccccc12 (single isomer, unassigned) [Example 7]
[A] false (0)

[Q] Please tell me: is the compound Cc1cn(Cc2ccc(C(C(=O)NC(CO)c3ccccc3)C3CCCCCC3)cc2)c2ccccc12 (mixture of isomers) at or over 7 in terms of pIC50?
[A] true (1)

[Q] Say whether Cc1c(C)n(Cc2ccc(C(C(=O)NC(CO)c3ccccc3)C3CCCCC3)cc2)c2ccccc12 (mixture of isomers) shows pIC50 of 7 or more.
[A] true (1)

[Q] Is it the case that COc1cccc2c1ccn2Cc1ccc(C(C(=O)NC(CO)c2ccccc2)C2CCCC2)cc1 (single isomer, unassigned) [Example 38] has pIC50 reaching or exceeding 7?
[A] false (0)

[Q] Determine whether this compound has pIC50 no lower than 7: CCOC(=O)c1cc2ccccc2n1Cc1ccc(C(C(=O)NC(CO)c2ccccc2)C2CCCC2)cc1 (mixture of isomers)
[A] true (1)

[Q] hey, is pIC50 for this one >= 7? O=C(NC(CO)c1ccccc1)C(c1ccc(Cn2c(-c3ccccc3)cc3ccccc32)cc1)C1CCCCCC1 (mixture of isomers)
[A] true (1)

[Q] In plain terms: is recorded pIC50 at least 7 for Cc1cc2ccccc2n1Cc1ccc(C(C(=O)NC(CO)c2ccccc2)C2CCCCCC2)cc1 (mixture of isomers) ?
[A] true (1)

[Q] Does the reported pIC50 for O=C(NC(CO)c1ccccc1)C(c1ccc(Cn2c(-c3ccccc3)cc3ccccc32)cc1)C1CCCC1 (single isomer, unassigned) [Example 15] fall at or above the 7 mark?
[A] true (1)

[Q] Check this compound for pIC50 at or above 7: O=C(NC(CO)c1ccccc1)C(c1ccc(Cn2ccc3ccc(Cl)cc32)cc1)C1CCCC1 (single isomer, unassigned) [Example 34]
[A] true (1)

[Q] For this compound, is measured pIC50 7 or higher? Cc1cccc2ccn(Cc3ccc(C(C(=O)NC(CO)c4ccccc4)C4CCCC4)cc3)c12 (mixture of isomers)
[A] false (0)
